test system: SW-620; assay: Growth inhibition of human SW620 cells assessed as cell growth at 1 uM incubated for 48 hrs by sulforhodamine B assay relative to control; assay type: functional; conditions: SW-620, 48 h, read-out: Activity
Below, each entry is listed with its recorded growth at 1 µM.
Kindly provide the numeric value in % only, without the unit symbol.

Sample records with growth at 1 µM:
# molecule smiles, growth at 1 µM (%)
rows = [
    ("O=C(Nc1cccc(-n2cc(-c3ccncc3)c(-c3cc(O)cc(Cl)c3)n2)c1)Nc1ccc(Cl)c(C(F)(F)F)c1", 101),
    ("COc1cc(Cl)cc(-c2nn(-c3cccc(NC(=O)Nc4cccc(C(F)(F)F)c4)c3)cc2-c2ccncc2)c1", 74),
    ("O=C(Nc1cccc(-n2cc(-c3ccncc3)c(-c3cc(O)cc(Cl)c3)n2)c1)Nc1ccc(Cl)c(Cl)c1", 102),
    ("O=C(Nc1cccc(-n2cc(-c3ccncc3)c(-c3cc(O)cc(Cl)c3)n2)c1)c1ccc(N2CCOCC2)c(C(F)(F)F)c1", 107),
]

Here is another compound to look at.
// query Identify the measured growth at 1 µM of COc1cc(Cl)cc(-c2nn(-c3cccc(NC(=O)Nc4ccc(Cl)c(C(F)(F)F)c4)c3)cc2-c2ccncc2)c1 for SW-620.
// result 63
